Measurement Notes: NCI Yeast Anticancer Drug Screen. Data for the mec2-1 strain (AID 157)
Reported Conditions: S. cerevisiae mec2-1 strain, at 50.0 µM
The panel holds about 79,000 compounds, 15% with a hit somewhere; the sample as a whole holds those more often. Activity calls are given as the source filed them. Cut-off read from the data, not from the text of the source: active = growth inhibition above about 70%; inactive = the rest.
API: response.call in active, inactive

Cn1c2ccccc2c2nnc(NCCCCO)nc21: inactive

Hello, I am checking results. What call was entered for OCCOc1ccc(-c2cc(-c3ccccn3)nc(-c3ccccn3)c2)cc1 ?
inactive

Outcome logged for Nc1nc(Cl)cc(Cl)n1 in this assay:
inactive

Dear all, I need the recorded test outcome for Cc1ccc2nc(N)nnc2c1 , thank you.
inactive

Look up the recorded call for Cc1ccc[n+](CCC(N)=O)c1 in this test.
inactive

What was the test verdict on CCOC(=O)CNC(=O)Sc1ccc(C(C)(C)C)cc1 ?
active

// param item: OC1Cc2ccccc2C1 ; yields the recorded call
inactive

* * *

Measurement Notes: NCI Yeast Anticancer Drug Screen. Data for the bub3 strain (AID 167)
Reported Conditions: S. cerevisiae bub3 mutant strain, at 50.0 µM, active compounds read high
Compounds without any hit were thinned out: in the full panel of roughly 79,000, 15% have a hit.
Label Criterion met when growth inhibition is at or above 10%; otherwise label Criterion not met.

Use the examples below as a reference point.
C=C(C)COc1ccc(C(C)(C)C)cc1: Criterion met
CCOc1ccc2c(c1)c(C)cc(C)[n+]2CC: Criterion met
CCCCNC(=O)c1ccc(OCC)cc1: Criterion not met

Has CC(C)(C)CC1(C)NC(=O)NC1=O (configuration not stated) a recorded growth inhibition greater than or equal to 10%?
Criterion not met

Is it the case that Cc1ccc2nc(-c3ccc(N=Cc4ccccc4O)cc3)sc2c1 has growth inhibition reaching or exceeding 10%?
Criterion met

Is growth inhibition at least 10%? Consider CC(=O)c1cccs1
Criterion not met

Dear colleague, could you confirm whether CN(C)c1ccc(O)c2c1CC1CC3C(N(C)C)C(=O)C(C(N)=O)=C(O)C3(O)C(=O)C1=C2O (configuration not stated) has growth inhibition at or above 10%?
Criterion not met

* * *

Measurement Notes: NCI Yeast Anticancer Drug Screen. Data for the mec2-1 strain (AID 157)
Reported Conditions: S. cerevisiae mec2-1 strain, at 50.0 µM, active compounds read high
About 79,000 compounds went through this panel and 15% of them were active in at least one assay; those are over-represented in the sample as a whole.
Can you tell me growth inhibition for the items I'm about to list?
Give bare numbers, in %.

COc1cc2c(c(OC)c1OC)-c1ccc(SC)c(=O)cc1[C@@H](NC1OC(CO)C(O)C(O)C1O)CC2 (some centres not stated): -1.85
CCCCCCCCCCCCCC/C=C\C(CC(=O)O)C(=O)O (configuration not stated): -15.5
NC(=S)N/N=C/c1ccc(OC(=O)COc2ccc(Cl)cc2)cn1: 7.85
CCOP(=O)(OCC)/C(=C\N1C(=O)CC(=O)NC1=S)C(=O)OC: -31.4
COc1cc(C(=O)NC(=S)NCc2ccncc2)cc(OC)c1OC: 4.75
Nc1nc(N)nc(N2CCCCC2)n1: -5.75
CC(C)(CC(=O)O)CC(=O)O: 1.15
Clc1ncnc2nc[nH]c12: -1
COc1ccc(-c2csc(NC(=O)Nc3nc(-c4ccc(OC)cc4)cs3)n2)cc1: -0.95
COc1ccc(C(=O)C(=O)c2ccccc2)cc1: 34.1

Batch request: growth inhibition per item, same order as input.
1. CC1(C)C2CCC1(C)C1(C2)OCCS1 (configuration not stated)
2. CC(O)C(F)(F)C(F)(F)C(F)(F)F (configuration not stated)

-5.25
-16.6
